- System: SUDHL5
- ASSAY OVERVIEW: Induction of cytotoxicity in SUDHL5 cells, CellTiter-Glo (Assay 6)
- Assay type: cell-based
- SETTINGS: SUDHL5, 5 hours incubation, median, read-out: Cytotox SUDHL5 [M] (median)
Below, each entry is listed with its recorded IC50.
EXPERIMENTAL READOUT: IC50

[[record]]
compound = "Cc1c2c(nn1C)CN(C(=O)NCC1CCOCC1)Cc1ccccc1Cn1c(C(=O)O)c(CCCOc3cccc4ccccc34)c3cccc-2c31 (single isomer, unassigned; enantiomer 1) [Example 28]"
assayed_target = "SUDHL5"
experimental_readout = "IC50"
measurement = "> 3.3e-05 M"

[[record]]
compound = "Cc1c2c(nn1C)COCc1ncccc1Cn1c(C(=O)O)c(CCCOc3cccc4ccccc34)c3cccc-2c31 (single isomer, unassigned; enantiomer 2) [Example 9]"
assayed_target = "SUDHL5"
experimental_readout = "IC50"
measurement = "> 3.3e-05 M"

[[record]]
compound = "Cc1c2c(nn1C)CN(C(=O)NC1CCOCC1)Cc1ccccc1Cn1c(C(=O)O)c(CCCOc3cccc4ccccc34)c3cccc-2c31 (single isomer, unassigned; enantiomer 1) [Example 25]"
assayed_target = "SUDHL5"
experimental_readout = "IC50"
measurement = "> 3.3e-05 M"

